Each recorded value in this set is attributed to patent US20240182536A1.

- assayed.system: T1, human IL-18 binding protein (human, UniProt O95998 31-194)
- T1 sequence (looked up): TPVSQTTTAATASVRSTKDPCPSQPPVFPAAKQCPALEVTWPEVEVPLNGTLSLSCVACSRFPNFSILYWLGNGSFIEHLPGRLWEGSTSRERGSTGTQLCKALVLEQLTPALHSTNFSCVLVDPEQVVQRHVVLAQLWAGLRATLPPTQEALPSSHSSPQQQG
- measurement.notes: cell-based or functional assay
Use 0.9 as the dividing line for Ratio (-BP/+BP), DF-1,000,000, with the line itself on the satisfied side and lower values as not satisfied.

Would you say yeast display IL-18 variant K53W, S55A (ligand) YFGKLESKLSVIRNLNDQVLFIDQGNRPLFEDMTDSDMRDNAPRTIFIISMYWDAQPRGMAVTISVKSEKISTLSSENKIISFKEMNPPDNIKDTKSDIIFFQRSVPGHDNKMQFESSSYEGYFLASEKERDLFKLILKKEDELGDRSIMFTVQNED shows Ratio (-BP/+BP), DF-1,000,000 at minimum 0.9? not satisfied

Would you say yeast display IL-18 variant T34I, S36T, D40A, N41M, K53T, S55Y (ligand) YFGKLESKLSVIRNLNDQVLFIDQGNRPLFEDMIDTDMRAMAPRTIFIISMYTDYQPRGMAVTISVKSEKISTLSSENKIISFKEMNPPDNIKDTKSDIIFFQRSVPGHDNKMQFESSSYEGYFLASEKERDLFKLILKKEDELGDRSIMFTVQNED shows Ratio (-BP/+BP), DF-1,000,000 at minimum 0.9? satisfied

Would you say yeast display IL-18 variant K53Y, S55G (ligand) YFGKLESKLSVIRNLNDQVLFIDQGNRPLFEDMTDSDMRDNAPRTIFIISMYYDGQPRGMAVTISVKSEKISTLSSENKIISFKEMNPPDNIKDTKSDIIFFQRSVPGHDNKMQFESSSYEGYFLASEKERDLFKLILKKEDELGDRSIMFTVQNED shows Ratio (-BP/+BP), DF-1,000,000 at minimum 0.9? satisfied

Would you say yeast display IL-18 variant E6D, S36F, K53T, S55M, R58K (ligand) YFGKLDSKLSVIRNLNDQVLFIDQGNRPLFEDMTDFDMRDNAPRTIFIISMYTDMQPKGMAVTISVKSEKISTLSSENKIISFKEMNPPDNIKDTKSDIIFFQRSVPGHDNKMQFESSSYEGYFLASEKERDLFKLILKKEDELGDRSIMFTVQNED shows Ratio (-BP/+BP), DF-1,000,000 at minimum 0.9? satisfied

Would you say yeast display IL-18 variant K53N, S55M, R104S, P107A (ligand) YFGKLESKLSVIRNLNDQVLFIDQGNRPLFEDMTDSDMRDNAPRTIFIISMYNDMQPRGMAVTISVKSEKISTLSSENKIISFKEMNPPDNIKDTKSDIIFFQSSVAGHDNKMQFESSSYEGYFLASEKERDLFKLILKKEDELGDRSIMFTVQNED shows Ratio (-BP/+BP), DF-1,000,000 at minimum 0.9? satisfied
